Where do the numbers come from? From ChEMBL document CHEMBL1833793.

Protein target, amino acids: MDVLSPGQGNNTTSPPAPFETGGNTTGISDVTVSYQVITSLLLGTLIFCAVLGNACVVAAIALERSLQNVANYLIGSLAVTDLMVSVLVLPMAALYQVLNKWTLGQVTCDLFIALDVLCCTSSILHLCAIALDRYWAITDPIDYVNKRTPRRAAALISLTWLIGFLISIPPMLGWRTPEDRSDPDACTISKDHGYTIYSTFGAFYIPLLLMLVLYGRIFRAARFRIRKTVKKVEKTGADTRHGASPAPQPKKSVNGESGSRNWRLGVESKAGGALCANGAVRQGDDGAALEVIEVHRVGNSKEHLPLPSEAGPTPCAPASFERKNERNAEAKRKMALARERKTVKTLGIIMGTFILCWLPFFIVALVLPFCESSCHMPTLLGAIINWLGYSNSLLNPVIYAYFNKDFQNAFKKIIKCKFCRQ
pKi: −log10 of the molar value.
OBSERVATION TYPE: pKi

molecule_smiles=CS(=O)(=O)NC[C@H]1CC[C@H](Nc2nc3c(s2)CCSc2ccccc2-3)CC1 readout_value=6.32
